Target: soluble guanylate cyclase (sGC) (Homo sapiens, UniProt Q02108+Q02153)
Construct: endogenously expressing soluble guanylate cyclase (sGC); endogenous in cells; host or cells: HEK293
Sequence (Q02153 1-619): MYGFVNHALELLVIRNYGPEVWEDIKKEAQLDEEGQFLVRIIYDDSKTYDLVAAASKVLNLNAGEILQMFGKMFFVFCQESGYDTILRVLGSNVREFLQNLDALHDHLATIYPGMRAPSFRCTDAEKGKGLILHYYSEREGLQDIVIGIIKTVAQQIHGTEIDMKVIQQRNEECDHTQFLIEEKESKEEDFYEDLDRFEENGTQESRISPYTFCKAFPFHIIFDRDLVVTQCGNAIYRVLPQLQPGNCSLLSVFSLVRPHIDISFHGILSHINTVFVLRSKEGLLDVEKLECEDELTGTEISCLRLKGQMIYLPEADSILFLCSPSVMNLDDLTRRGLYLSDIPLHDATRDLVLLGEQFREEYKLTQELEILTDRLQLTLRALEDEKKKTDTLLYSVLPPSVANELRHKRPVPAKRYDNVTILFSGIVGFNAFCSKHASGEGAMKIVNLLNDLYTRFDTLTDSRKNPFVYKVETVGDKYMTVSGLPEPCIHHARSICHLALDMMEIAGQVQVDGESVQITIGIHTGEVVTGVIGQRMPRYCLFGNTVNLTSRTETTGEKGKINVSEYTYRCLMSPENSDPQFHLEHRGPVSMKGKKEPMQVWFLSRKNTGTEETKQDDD
Sequence (Q02108 1-690): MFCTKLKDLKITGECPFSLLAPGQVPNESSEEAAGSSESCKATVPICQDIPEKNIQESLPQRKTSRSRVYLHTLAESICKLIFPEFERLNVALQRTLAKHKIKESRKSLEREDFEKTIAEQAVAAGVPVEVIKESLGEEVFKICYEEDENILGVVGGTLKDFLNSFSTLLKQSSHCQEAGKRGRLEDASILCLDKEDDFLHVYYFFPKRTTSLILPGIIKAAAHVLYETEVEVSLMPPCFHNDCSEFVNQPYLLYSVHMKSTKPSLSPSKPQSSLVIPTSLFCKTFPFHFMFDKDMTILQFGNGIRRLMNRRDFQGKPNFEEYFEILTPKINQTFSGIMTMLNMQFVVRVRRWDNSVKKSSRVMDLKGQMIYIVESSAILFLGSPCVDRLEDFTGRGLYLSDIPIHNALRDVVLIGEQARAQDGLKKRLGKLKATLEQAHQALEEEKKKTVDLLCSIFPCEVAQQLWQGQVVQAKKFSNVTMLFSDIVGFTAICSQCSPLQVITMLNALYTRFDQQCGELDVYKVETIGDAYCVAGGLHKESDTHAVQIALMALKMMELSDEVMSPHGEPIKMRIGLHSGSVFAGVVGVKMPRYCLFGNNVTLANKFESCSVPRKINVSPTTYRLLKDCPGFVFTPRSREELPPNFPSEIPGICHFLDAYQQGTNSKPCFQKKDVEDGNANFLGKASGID
Assay: sGC-HEK-cGMP assay (run with SNP incubation)
Assay type: cell-based
Conditions: in the presence of 10 μM SNP; Table 3D; read-out: HEK assay EC50
pEC50: −log10 of the molar value.
Overview of recorded pEC50 for various molecules

Problem: For the molecule CN(C1CC1)S(=O)(=O)c1cnc(-c2cc(-c3ccon3)n(Cc3ccccc3F)n2)[nH]c1=O [Compound 14] , what pEC50 is on record?
Solution: > 4.70

Problem: For NNc1nc(-c2cc(-c3ccon3)n(Cc3ccccc3F)n2)ncc1F [Compound 56] then?
Solution: > 4.70

Problem: For CN(C)S(=O)(=O)c1cnc(-c2cc(-c3ccon3)n(Cc3ccccc3F)n2)[nH]c1=O [Compound 22] then?
Solution: > 4.70

Problem: For O=c1[nH]c(-c2cc(-c3ccon3)n(Cc3c(F)ccc(F)c3F)n2)ncc1F [Compound 19] then?
Solution: 4.22 to 4.40

Problem: For CN(c1ccccc1)S(=O)(=O)c1cnc(-c2cc(-c3ccon3)n(Cc3ccccc3F)n2)[nH]c1=O [Compound 25] then?
Solution: > 4.70
